All figures here come from ChEMBL document CHEMBL1140493.

Each entry below lists one item and its recorded logP value.
study.conditions: octanol/water
readout: logP

[[record]]
molecule = "C/C=C/C=C/C(=O)OCCCCC"
readout = "logP"
recorded_value = 3.1

[[record]]
molecule = "C/C=C/C=C/C(=O)NN"
readout = "logP"
recorded_value = 0.59

[[record]]
molecule = "C/C=C/C=C/C(=O)Nc1ccc(OC)cc1"
readout = "logP"
recorded_value = 2.28

[[record]]
molecule = "C/C=C/C=C/C(=O)OCCCCCC"
readout = "logP"
recorded_value = 3.5

[[record]]
molecule = "C/C=C/C=C/C(=O)Nc1cccc(Cl)c1"
readout = "logP"
recorded_value = 3.05

[[record]]
molecule = "C/C=C/C=C/C(=O)Nc1ccccc1Cl"
readout = "logP"
recorded_value = 3.05

[[record]]
molecule = "C/C=C/C=C/C(=O)Nc1ccc([N+](=O)[O-])cc1"
readout = "logP"
recorded_value = 2.49

[[record]]
molecule = "C/C=C/C=C/C(=O)OCC(C)C"
readout = "logP"
recorded_value = 2.71

[[record]]
molecule = "C=CCOC(=O)/C=C/C=C/C"
readout = "logP"
recorded_value = 2.24

[[record]]
molecule = "C/C=C/C=C/C(=O)Nc1cccc([N+](=O)[O-])c1"
readout = "logP"
recorded_value = 2.49

[[record]]
molecule = "C/C=C/C=C/C(=O)Nc1cccc(O)c1"
readout = "logP"
recorded_value = 2.25

[[record]]
molecule = "C/C=C/C=C/C(=O)OC(C)(C)C"
readout = "logP"
recorded_value = 2.33

[[record]]
molecule = "C/C=C/C=C/C(=O)NCc1ccccc1"
readout = "logP"
recorded_value = 2.63

[[record]]
molecule = "C/C=C/C=C/C(=O)OCCCC"
readout = "logP"
recorded_value = 2.71

[[record]]
molecule = "C/C=C/C=C/C(=O)Nc1ccccc1"
readout = "logP"
recorded_value = 2.53

[[record]]
molecule = "C/C=C/C=C/C(=O)OCCCCCCC"
readout = "logP"
recorded_value = 3.9

[[record]]
molecule = "C/C=C/C=C/C(=O)Oc1cccc2cccnc12"
readout = "logP"
recorded_value = 3.27

[[record]]
molecule = "C/C=C/C=C/C(=O)N1CCOCC1"
readout = "logP"
recorded_value = 0.75

[[record]]
molecule = "C/C=C/C=C/C(=O)Nc1ccc(C)cc1"
readout = "logP"
recorded_value = 3

[[record]]
molecule = "C/C=C/C=C/C(=O)OCc1ccccc1"
readout = "logP"
recorded_value = 3.28

[[record]]
molecule = "C/C=C/C=C/C(=O)NCC"
readout = "logP"
recorded_value = 1.19

[[record]]
molecule = "C/C=C/C=C/C(=O)OCCC"
readout = "logP"
recorded_value = 2.31

[[record]]
molecule = "C/C=C/C=C/C(=O)Nc1ccccc1OC"
readout = "logP"
recorded_value = 2.28

[[record]]
molecule = "C/C=C/C=C/C(=O)OCCC(C)C"
readout = "logP"
recorded_value = 3.04

[[record]]
molecule = "C/C=C/C=C/C(=O)Nc1cccc(C)c1"
readout = "logP"
recorded_value = 3

[[record]]
molecule = "C/C=C/C=C/C(=O)N1CCCCC1"
readout = "logP"
recorded_value = 1.82

[[record]]
molecule = "C/C=C/C=C/C(=O)N(CCO)CCO"
readout = "logP"
recorded_value = 0.21

[[record]]
molecule = "C/C=C/C=C/C(=O)NCCO"
readout = "logP"
recorded_value = 0.41

[[record]]
molecule = "C/C=C/C=C/C(=O)OC [METHYL SORBATE]"
readout = "logP"
recorded_value = 1.5

[[record]]
molecule = "C/C=C/C=C/C(=O)OC(C)C"
readout = "logP"
recorded_value = 2.26

[[record]]
molecule = "C/C=C/C=C/C(=O)NCCC"
readout = "logP"
recorded_value = 1.66

[[record]]
molecule = "C/C=C/C=C/C(=O)N(c1ccccc1)c1ccccc1"
readout = "logP"
recorded_value = 4.46

[[record]]
molecule = "C/C=C/C=C/C(=O)Nc1ccc(Cl)cc1"
readout = "logP"
recorded_value = 3.05

